Origin of measurements: paper PMC10566475

# MEASURED ON: human Keap1 Kelch domain (A321-T609) (Homo sapiens, UniProt Q14145)
# Construct: human Keap1 Kelch domain (A321-T609) fused with N-terminal 6x His-tag; 6xHis (N); made in house
# Sequence (Q14145 321-609): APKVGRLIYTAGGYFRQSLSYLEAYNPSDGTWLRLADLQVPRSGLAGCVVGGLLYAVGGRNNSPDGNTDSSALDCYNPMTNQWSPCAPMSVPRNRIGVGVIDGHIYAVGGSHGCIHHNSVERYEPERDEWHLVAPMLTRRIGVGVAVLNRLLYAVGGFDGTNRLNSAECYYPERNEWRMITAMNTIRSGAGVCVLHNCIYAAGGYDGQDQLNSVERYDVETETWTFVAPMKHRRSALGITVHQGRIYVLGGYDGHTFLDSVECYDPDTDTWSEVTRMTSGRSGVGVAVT
# MEASUREMENT NOTES: Surface plasmon resonance (SPR) direct binding assay, immobilised Keap1 Kelch domain
# CONDITION DETAILS: Table 1; geometric mean ± sd of at least 3 independent repeats unless stated; 20°C
*1 amine or outer side, *2 acyl side, *3 side chain or, on linkers, in order; H or OH if unused. Where a SMILES comes first, the peptide text is derived from it. Bridges are numbered along the chain shown (N, C = ends). mXylylene = c1cc(C[*:1])cc(C[*:2])c1; CH2 = C([*:1])[*:2]
MEASUREMENT KIND: Kd
Give the number first and the unit second.

[
  {
    "COMPOUND": "CC(=O)N[C@H]1Cn2cc(nn2)-c2cc(C(=O)O)cc(c2)-c2cn(nn2)C[C@@H](C(=O)N[C@@H](CC(C)C)C(N)=O)NC(=O)[C@H](CCC(=O)O)NC(=O)CNC(=O)[C@H]([C@@H](C)O)NC(=O)[C@H](CCC(=O)O)NC(=O)[C@@H]2CCCN2C(=O)[C@H](CC(=O)O)NC(=O)[C@H](CC(C)C)NC(=O)[C@H](CCC(N)=O)NC(=O)[C@H](CC(C)C)NC1=O [Peptide P3Aza-E]",
    "Kd": "34 nM"
  },
  {
    "COMPOUND": "CC(=O)N[C@H]1CSCc2cccc(c2)CSC[C@@H](C(=O)N[C@@H](CC(C)C)C(N)=O)NC(=O)[C@H](CCC(=O)O)NC(=O)CNC(=O)[C@H]([C@@H](C)O)NC(=O)[C@H](CCC(=O)O)NC(=O)[C@@H]2CCCN2C(=O)[C@H](CC(=O)O)NC(=O)[C@H](CC(C)C)NC(=O)[C@H](CCC(N)=O)NC1=O [Peptide P1-C] (Ac-CQLDPETGECL-NH2; linker 1-10 via mXylylene)",
    "Kd": "17 nM"
  }
]

As a next step, examine the compound that follows.
Value (Kd, human Keap1 Kelch domain (A321-T609) (Homo sapiens, UniProt Q14145)) for record CC(=O)N[C@H]1CSCSC[C@@H](C(=O)N[C@@H](CC(C)C)C(N)=O)NC(=O)[C@H](CCC(=O)O)NC(=O)CNC(=O)[C@H]([C@@H](C)O)NC(=O)[C@H](CCC(=O)O)NC(=O)[C@@H]2CCCN2C(=O)[C@H](CC(=O)O)NC(=O)[C@H](CC(C)C)NC(=O)[C@H](CCC(N)=O)NC1=O [Peptide P1-A] (Ac-CQLDPETGECL-NH2; linker 1-10 via CH2) = 19 nM
